Biological target: T1, IL-18 receptor (IL-18Rα and IL-18Rβ) (UniProt Q13478 19-541; O95256 20-599, limits assumed)
T1 sequence (looked up) 1: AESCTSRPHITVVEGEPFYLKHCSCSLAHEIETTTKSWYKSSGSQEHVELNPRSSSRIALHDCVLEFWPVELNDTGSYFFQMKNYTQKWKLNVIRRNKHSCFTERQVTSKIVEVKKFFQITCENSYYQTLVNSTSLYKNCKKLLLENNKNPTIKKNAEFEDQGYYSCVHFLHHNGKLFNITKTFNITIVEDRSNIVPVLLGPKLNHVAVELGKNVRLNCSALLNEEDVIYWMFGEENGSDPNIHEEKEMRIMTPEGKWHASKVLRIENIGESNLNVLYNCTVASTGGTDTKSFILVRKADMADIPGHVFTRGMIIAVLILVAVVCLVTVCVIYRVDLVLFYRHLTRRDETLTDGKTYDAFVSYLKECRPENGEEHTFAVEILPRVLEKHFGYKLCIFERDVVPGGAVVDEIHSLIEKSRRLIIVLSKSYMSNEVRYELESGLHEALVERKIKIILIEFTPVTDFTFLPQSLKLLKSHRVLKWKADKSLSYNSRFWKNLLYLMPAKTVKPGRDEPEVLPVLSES
T1 sequence (looked up) 2: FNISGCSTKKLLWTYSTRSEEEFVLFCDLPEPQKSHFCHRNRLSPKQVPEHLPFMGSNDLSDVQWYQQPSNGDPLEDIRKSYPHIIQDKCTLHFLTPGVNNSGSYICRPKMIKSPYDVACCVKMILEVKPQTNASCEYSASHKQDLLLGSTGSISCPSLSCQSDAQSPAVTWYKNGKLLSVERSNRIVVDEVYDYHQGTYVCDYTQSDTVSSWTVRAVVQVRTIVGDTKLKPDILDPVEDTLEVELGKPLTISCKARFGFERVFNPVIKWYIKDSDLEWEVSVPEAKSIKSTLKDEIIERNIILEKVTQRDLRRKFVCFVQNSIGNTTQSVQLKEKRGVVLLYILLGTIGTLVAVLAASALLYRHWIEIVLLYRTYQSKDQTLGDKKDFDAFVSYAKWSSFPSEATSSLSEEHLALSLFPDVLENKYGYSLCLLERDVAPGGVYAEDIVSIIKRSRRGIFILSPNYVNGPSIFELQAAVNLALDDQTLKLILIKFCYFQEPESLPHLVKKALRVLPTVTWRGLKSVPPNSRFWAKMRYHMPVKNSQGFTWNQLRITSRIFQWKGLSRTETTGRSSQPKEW
Experiment: cell-based or functional assay
recorded_metric: PBMC IFN gamma EC50 relative to WT-IL18, run 3
When you answer, write just the number.

Task: What does the record list as PBMC IFN gamma EC50 relative to WT-IL18, run 3 for hIL18 (G3V, K53A, M60K) - KiH (Fc fusion) YFVKLESKLSVIRNLNDQVLFIDQGNRPLFEDMTDSDMRDNAPRTIFIISMYADSQPRGKAVTISVKSEKISTLSSENKIISFKEMNPPDNIKDTKSDIIFFQRSVPGHDNKMQFESSSYEGYFLASEKERDLFKLILKKEDELGDRSIMFTVQNED ?
Output: 0.37

Task: Input hIL18 (G3T, K53S, M60K) - KiH (Fc fusion) YFTKLESKLSVIRNLNDQVLFIDQGNRPLFEDMTDSDMRDNAPRTIFIISMYSDSQPRGKAVTISVKSEKISTLSSENKIISFKEMNPPDNIKDTKSDIIFFQRSVPGHDNKMQFESSSYEGYFLASEKERDLFKLILKKEDELGDRSIMFTVQNED
Output: 4.85

Task: Input hIL18 (G3V, E6K, K53S, M60K) - KiH (Fc fusion) YFVKLKSKLSVIRNLNDQVLFIDQGNRPLFEDMTDSDMRDNAPRTIFIISMYSDSQPRGKAVTISVKSEKISTLSSENKIISFKEMNPPDNIKDTKSDIIFFQRSVPGHDNKMQFESSSYEGYFLASEKERDLFKLILKKEDELGDRSIMFTVQNED
Output: 0.07
